Tested on: 323965-272-R-J2-PDC complex spheroid growth, % test/control;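 also: compound exposure lasted 7 days starting three days after spheroid seeding; 100% = DMSO vehicle control wells with viability set relative to vehicle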
assayMethodText: Anticancer human tumor 323965-272-R-J2-PDC patient-derived pancreatic carcinoma cell line growth inhibition [Asc]
statedConditions: second compound 0.0316 µM; first compound 0.3 µM; stronger effect = lower value
From the text: Multicellular complex tumor spheroid response to apoptosis pathway targeting inhibitors Alrizomadlin, Pelcitoclax, and Dasminapant in combination with a variety of drugs and investigational agents in selected tumor cell lines […] Compounds. […] If the clinical Cmax for an agent had not been determined, the highest concentration tested was 10 microM. […]
recordedMetric: viability, T/C

Here is how some compounds turned out for viability, T/C.
{"columns": ["compound", "studyTarget", "recordedMetric", "measuredResult"],
 "data": [
  ["Cc1nc(N2CCC3(CC2)COC(C)C3N)c(CO)nc1Sc1ccnc(N)c1Cl (stereo not drawn) + Cc1c(S(C)(=O)=O)c(-c2cc(F)cc(N3CCN(c4ccc(NS(=O)(=O)c5ccc(NC(CCN6CCC(C(=O)OCCCP(=O)(O)O)CC6)CSc6ccccc6)c(S(=O)(=O)C(F)(F)F)c5)cc4)CC3)c2)c(-c2ccc(Cl)cc2)n1C(C)C", "323965-272-R-J2-PDC complex spheroid growth, % test/control", "viability, T/C", "67.8%"],
  ["Cc1nc(N2CCC3(CC2)COC(C)C3N)c(CO)nc1Sc1ccnc(N)c1Cl (stereo not drawn) + CNC(C)C(=O)NC1CN(S(=O)(=O)c2cccc(S(=O)(=O)N3CCC4CCC(C(=O)NC(c5ccccc5)c5ccccc5)N4C(=O)C(NC(=O)C(C)NC)C3)c2)CCC2CCC(C(=O)NC(c3ccccc3)c3ccccc3)N2C1=O", "323965-272-R-J2-PDC complex spheroid growth, % test/control", "viability, T/C", "58.1%"]
]}

Read the next record carefully.
Quick note, viability, T/C for CCN1C(C(=O)NC23CCC(C(=O)O)(CC2)CC3)C(c2cccc(Cl)c2F)C2(C(=O)Nc3cc(Cl)ccc32)C12CCCCC2 (stereo not drawn) + Cc1c(S(C)(=O)=O)c(-c2cc(F)cc(N3CCN(c4ccc(NS(=O)(=O)c5ccc(NC(CCN6CCC(C(=O)OCCCP(=O)(O)O)CC6)CSc6ccccc6)c(S(=O)(=O)C(F)(F)F)c5)cc4)CC3)c2)c(-c2ccc(Cl)cc2)n1C(C)C landed at 101%
